- Test system: barnyardgrass
- run_description: Test Example 1: foliage treatment, upland pot test
- Type: in vivo, Echinochloa crus-galli L.
- recorded_conditions: active ingredient 1000 g/ha, observed 18th to 23rd day, 0 = non-treated, 100 = complete kill
observed_property: Growth controlling degree (%) Barnyardgrass
State the answer as a number, implicitly in %.

[[record]]
molecule = "COC(=O)N(C)C(c1cnccc1C(F)(F)F)c1cccc2ccccc12 (stereo not drawn)"
unit_spec = "%"
reported_measurement = 80

[[record]]
molecule = "CCC(=O)N(CC)C(c1cnccc1C(F)(F)F)c1cccc2ccccc12 (stereo not drawn)"
unit_spec = "%"
reported_measurement = 60

[[record]]
molecule = "CC(C)C(c1cnccc1C(F)(F)F)N(C)C(=O)Cc1cccc(Br)c1 (stereo not drawn)"
unit_spec = "%"
reported_measurement = 70

[[record]]
molecule = "CC(C)C(c1cnccc1Cl)N(C)C(=O)Cc1cccc(C(F)(F)F)c1F (stereo not drawn)"
unit_spec = "%"
reported_measurement = 50

[[record]]
molecule = "CC(C)C(c1cnccc1C(F)(F)F)N(C)C(=O)Cc1ccc(I)cc1 (stereo not drawn)"
unit_spec = "%"
reported_measurement = 90


Request the reported Growth controlling degree (%) Barnyardgrass associated with CC(C)C(c1cnccc1Cl)N(C)C(=O)Cc1ccc(F)c(F)c1 (stereo not drawn)
40

What does the data say about its Growth controlling degree (%) Barnyardgrass? Entry: CC(C)C(c1cnccc1C(F)(F)F)N(C)C(=O)C=Cc1cccc2ccccc12 (stereo not drawn)
60

Return reported Growth controlling degree (%) Barnyardgrass; argument: CCC(=O)N(C)C(c1cnccc1C(F)(F)F)c1cccc2ccccc12 (stereo not drawn)
70

Please give the measured Growth controlling degree (%) Barnyardgrass for this molecule: CC(C)C(c1cnccc1C(F)(F)F)N(C)C(=O)Cc1ccccc1Br (stereo not drawn)
70
